Attribution: patent US20220403048A1

Molecular target: T1, ARG2 (Homo sapiens, UniProt P78540)
T1 sequence (P78540 23-354): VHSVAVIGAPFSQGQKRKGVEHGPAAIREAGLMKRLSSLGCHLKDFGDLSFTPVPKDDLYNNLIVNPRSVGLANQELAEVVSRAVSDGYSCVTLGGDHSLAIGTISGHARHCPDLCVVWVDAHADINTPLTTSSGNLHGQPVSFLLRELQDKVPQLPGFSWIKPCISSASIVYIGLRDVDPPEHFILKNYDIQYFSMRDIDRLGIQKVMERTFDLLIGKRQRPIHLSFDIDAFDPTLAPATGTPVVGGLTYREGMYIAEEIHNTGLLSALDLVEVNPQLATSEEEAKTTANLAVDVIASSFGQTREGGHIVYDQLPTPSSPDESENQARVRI
Assay: T cell proliferation assay (BrdU, 96 hours) with exogenous ARG2, improved variant IgGs
Format: cell-based
Conditions: In Absence of rhARG2; 96 hours; hIgG1
Hi there, I'd appreciate the recorded EC50 for every entry that follows.

Need EC50 of C0021133: anti-ARG2 antibody, VH SEQ ID NO: 192, VL SEQ ID NO: 197 (antibody, listed as Homo sapiens, V domains shown, C0021133) VH: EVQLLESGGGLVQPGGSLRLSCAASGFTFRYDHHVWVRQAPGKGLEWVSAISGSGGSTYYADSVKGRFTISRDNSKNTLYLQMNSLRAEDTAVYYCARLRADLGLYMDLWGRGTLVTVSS VL: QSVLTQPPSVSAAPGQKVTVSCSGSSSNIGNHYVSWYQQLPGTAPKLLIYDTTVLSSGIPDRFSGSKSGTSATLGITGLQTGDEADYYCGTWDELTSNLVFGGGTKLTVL , thanks.
< 0.7 nM

What does the record list as EC50 for C0021022: anti-ARG2 antibody, VH SEQ ID NO: 42, VL SEQ ID NO: 47 (antibody, listed as Homo sapiens, V domains shown, C0021022) VH: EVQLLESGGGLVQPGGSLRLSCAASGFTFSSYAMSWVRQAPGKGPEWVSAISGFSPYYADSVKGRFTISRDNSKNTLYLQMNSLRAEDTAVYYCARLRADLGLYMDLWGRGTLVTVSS VL: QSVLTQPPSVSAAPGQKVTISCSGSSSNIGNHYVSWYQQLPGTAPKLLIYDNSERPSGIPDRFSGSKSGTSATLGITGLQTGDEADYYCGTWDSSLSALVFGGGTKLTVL ?
< 1 nM
